B1: RAD51 (parent)
chain: RFLRMLLRLADEFGVAVVITNQVV

# Variants of: B1
# procedure_text: protein stability index of a GFP-peptide fusion (GPS, HEK-293T) (PSI 1-6); higher = more stable;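 further: lentivirally expressed fusions sorted by FACS into six bins by GFP to DsRed ratio, PSI derived from sequencing read proportions per bin multiplied by bin number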
# condition_context: c terminus: a fixed tail appended
Tag: y if measured protein stability index is not below 2, n if it is.

seq | class
RFLRMLLRLADEFGVYVVITNQVV | n
RFLRMLLRLADEFGVAVVICNQVV | n
RFLRMLLRLADEFGVAVVITSQVV | n
RFLRMLLRLADEFGMAVVITNQVV | n
RFLRMLLRLADEFGVAVVITNRVV | y

Form field: protein stability index at least 2? Entry: RFLRMLVRLADEFGVAVVITNQVV y

Form field: protein stability index at least 2? Entry: RFLRMLLRLADEFGVAVVITNQVW n

Form field: protein stability index at least 2? Entry: RFLRMLLRLADEFGKAVVITNQVV y

Form field: protein stability index at least 2? Entry: RFLRMLLRLADEFGVAVVQTNQVV n

Form field: protein stability index at least 2? Entry: RFLRMLLNLADEFGVAVVITNQVV n
